molecules and their reported pIC50
System: human T-lymphocyte (CEM)
Experiment: Cytostatic activity, inhibition of CEM cell proliferation
Type: cell-based
Conditions: 72 h, read-out: IC50 CEM
Value format note: pIC50 is -log10 of concentration (mol/L); just state the number.

Consider the following illustrative entries.
molecule="CCOP(=O)(OCC)[C@H]1C[C@H](c2nc3ccccc3c(=O)n2Cc2ccccc2[N+](=O)[O-])ON1C (relative stereo) [trans-11c]" test_value=4.12
molecule="CCOP(=O)(OCC)[C@H]1C[C@H](c2nc3ccccc3c(=O)n2Cc2ccccc2F)ON1C (relative stereo) [trans-11f/cis-11f (90:10)]" test_value=4.54
molecule="CCOP(=O)(OCC)[C@H]1C[C@H](c2nc3ccccc3c(=O)n2CC)ON1C (relative stereo) [trans-11k/cis-11k (97:3)]" test_value=4.07
molecule="CCOP(=O)(OCC)[C@H]1C[C@H](c2nc3ccccc3c(=O)n2Cc2ccc([N+](=O)[O-])cc2)ON1C (relative stereo) [trans-11e/cis-11e (90:10)]" test_value=4.47

In plain terms, CCOP(=O)(OCC)[C@H]1C[C@H](c2nc3ccccc3c(=O)n2Cc2cccc(F)c2)ON1C (relative stereo) [trans-11g] has a documented pIC50 of 4.59

In plain terms, CCOP(=O)(OCC)[C@H]1C[C@H](c2nc3ccccc3c(=O)n2Cc2ccccc2)ON1C (relative stereo) [trans-11b/cis-11b (90:10)] has a documented pIC50 of 4.55

In plain terms, CCOP(=O)(OCC)[C@H]1C[C@H](c2nc3ccccc3c(=O)n2Cc2cccc([N+](=O)[O-])c2)ON1C (relative stereo) [trans-11d/cis-11d (90:10)] has a documented pIC50 of 4.68

In plain terms, CCOP(=O)(OCC)[C@H]1C[C@H](c2nc3ccccc3c(=O)n2Cc2ccc(F)cc2)ON1C (relative stereo) [trans-11h] has a documented pIC50 of 4.52

In plain terms, CCOP(=O)(OCC)[C@H]1C[C@H](c2nc3ccccc3c(=O)n2Cc2ccc(F)cc2F)ON1C (relative stereo) [trans-11i/cis-11i (97:3)] has a documented pIC50 of 4.62
